Biological target: Ras farnesyl transferase (Homo sapiens, UniProt P49354+P49356)
Construct: made in house
Assay: In vitro inhibitory activity for Ras farnesyl transferase, K-Ras substrate
Assay type: biochemical
Details: in vitro farnesyl transferase assay, K-Ras; read-out: K-Ras IC50
Give measured IC50 for each item. Keep answers brief.

Q: Given O=C(Nc1ccccc1)c1cn(Cc2c[nH]cn2)cc1-c1cccc2ccccc12 [Compound 82] , state its recorded IC50.
Result: 0.1 to 10 µM

Q: Next: COC(=O)c1sc(Cc2cncn2Cc2ccc(Cl)cc2)nc1-c1cccc2ccccc12 [Compound 148]
Result: > 50 µM

Q: And what about the molecule Cc1ccc(C(=O)c2cn(Cc3c[nH]cn3)cc2-c2cn(C)c3ccccc23)cc1 [Compound 70] ?
Result: 0.1 to 10 µM

Q: Another: O=C(c1ccc(Cc2ccccc2)cc1)c1cn(Cc2c[nH]cn2)cc1-c1cccc2ccccc12 [Compound 68]
Result: 0.1 to 10 µM
